assay-metric: pIC50
pIC50 here is simply -log10 of the concentration when that concentration is written in mol/L.

In: Query pIC50 on Adenosine receptor A3 (Homo sapiens) for Cc1c(C#Cc2ccc(CN3CCC(CO)CC3)cc2)cc(C(F)F)c2cn(C(C(=O)Nc3nccs3)c3ncn4c3CCC43CC3)nc12 (stereo unspecified)
Sequence (P0DMS8 whole entry): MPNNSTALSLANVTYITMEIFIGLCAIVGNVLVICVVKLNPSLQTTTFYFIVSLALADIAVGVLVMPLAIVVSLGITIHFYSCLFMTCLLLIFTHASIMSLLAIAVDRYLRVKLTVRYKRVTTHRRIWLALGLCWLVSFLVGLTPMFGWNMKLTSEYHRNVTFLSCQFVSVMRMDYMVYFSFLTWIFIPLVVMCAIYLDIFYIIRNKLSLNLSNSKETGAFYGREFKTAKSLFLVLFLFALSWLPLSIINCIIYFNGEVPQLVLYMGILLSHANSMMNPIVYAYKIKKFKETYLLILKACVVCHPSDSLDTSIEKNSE
Out: 6.70

* * *

- assay-info: AUC(0 to t) in CD1 mouse at 1 mg/kg, iv administered as single dose measured after 24 hrs by LC-MS/MS analysis
- Format: ADME, organism-based
- Parameters: time 24 hrs, dose 1 mg/kg, route iv
- assay-setup: in vivo
assay-metric: AUC(0-t) at 24 h (ng·h/mL)
Just the number please, in ng·h/mL, no unit attached.

In: Entry Cc1c(C#Cc2ccc(CN3CCC(CO)CC3)cc2)cc(C(F)F)c2cn(C(C(=O)Nc3nccs3)c3ncn4c3CCC43CC3)nc12 (stereo unspecified) has what AUC(0-t) at 24 h?
Out: 803
